# Assay System: chemokine receptor 1 (CCR1) (UniProt P56482 1-355)
# Sequence (P56482 whole entry): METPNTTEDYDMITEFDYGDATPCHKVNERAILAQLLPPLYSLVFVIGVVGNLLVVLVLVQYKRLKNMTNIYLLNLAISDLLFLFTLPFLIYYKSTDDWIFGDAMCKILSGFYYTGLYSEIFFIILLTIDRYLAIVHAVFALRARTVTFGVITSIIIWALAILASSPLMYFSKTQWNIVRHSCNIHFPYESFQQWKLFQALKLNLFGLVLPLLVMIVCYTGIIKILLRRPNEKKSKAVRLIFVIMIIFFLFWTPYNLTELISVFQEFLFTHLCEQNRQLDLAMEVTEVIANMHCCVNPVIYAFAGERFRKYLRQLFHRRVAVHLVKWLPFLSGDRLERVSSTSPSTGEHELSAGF
# Assay Remarks: competition with 0.1 nM 125I-Rantes, membranes of CHO-K1 cells expressing CCR1, filtration
Observable: pIC50
Units for pIC50: none; it is -log10 of a concentration expressed in mol/L.

Query string: Quick one: pIC50 of PHC-1 (HCC-1[9-74]) (ligand, Purified from human hemofiltrate or made by tryptic digestion of HCC-1 1-74; also called processed chemokine PHC-1; HCC-1, residues 9-74) GPYHPSECCFTYTTYKIPRQRIMDYYETNSQCSKPGIVFITKRGHSVCTNPSDKWVQDYIKDMKEN ?
Result string: 8.64
